measurement-target: UniProt P29275
procedure-summary: Adenosine receptor activity assay (Table 1), A2B activity
Format: biochemical
measurement-conditions: A2A activity to A2B activity (A2A/A2B)
parameter-measured: Ratio

molecule | endpoint-value
C[C@H](Nc1nc(C(=O)N2CCC(C(=O)O)C2)c2sccc2n1)c1cncc(F)c1 (stereo partly shown) [Example Z379] | 68.03
C[C@H](Nc1nc(C(=O)N2CC(O)C2)c2sccc2n1)c1ccccn1 [Example Z100] | 11.09
O=C(NCc1cncc(F)c1)c1nc(NCc2cncc(F)c2)nc2ccsc12 [Example Z15] | 9.43
C[C@@H]1CCN(C(=O)c2nc(N[C@@H](C)c3ccccn3)nc3cc(N)sc23)C1 [Example Z206] | 8.53

###

measurement-target: adenosine A2B receptor (Homo sapiens (Human), UniProt P29275)
Sequence (P29275 whole entry): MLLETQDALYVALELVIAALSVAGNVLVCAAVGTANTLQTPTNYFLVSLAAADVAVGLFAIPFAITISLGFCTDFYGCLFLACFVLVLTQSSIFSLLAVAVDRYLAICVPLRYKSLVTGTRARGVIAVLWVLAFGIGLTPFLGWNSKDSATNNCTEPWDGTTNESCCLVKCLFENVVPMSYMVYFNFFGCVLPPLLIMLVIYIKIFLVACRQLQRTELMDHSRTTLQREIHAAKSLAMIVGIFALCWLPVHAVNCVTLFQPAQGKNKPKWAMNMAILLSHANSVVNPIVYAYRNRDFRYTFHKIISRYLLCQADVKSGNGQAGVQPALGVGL
procedure-summary: Adenosine receptor activity assay (Table 1), A2B activity
Assay type: biochemical
measurement-conditions: A2A activity to the A2B activity; A2A/A2B
Listing of entries alongside the reported Ratio.

smi | Ratio
Cc1cc(C)cc(C(=O)NC2CN(C(=O)c3nc(N[C@@H](C)c4cncc(F)c4)nc4ccsc34)C2)c1 | 0.65
CC(C)NC(=O)N1CCN(C(=O)c2nc(N[C@@H](C)c3cncc(F)c3)nc3ccsc23)C1 | 1.63
C[C@H](Nc1nc(C(=O)N2CC(NC(=O)OC(C)(C)C)C2)c2sccc2n1)c1cncc(F)c1 | 0.37
COC1(C)CN(C(=O)c2nc(N[C@@H](C)c3ccccn3)nc3ccsc23)C1 | 10.58
C[C@H](Nc1nc(C(=O)N2CC(NC(=O)C3COC3)C2)c2sccc2n1)c1cncc(F)c1 | 4.49
CC(=O)Nc1ccc(CCNC(=O)c2nc(N[C@@H](C)c3cncc(F)c3)nc3cc(C)sc23)cc1 | 147.08
Cc1csc2c(C(=O)N3CC(NC(=O)c4cccc(Cl)c4)C3)nc(N[C@@H](C)c3cncc(F)c3)nc12 | 0.68
COC[C@@H](Nc1nc(C(=O)NCCc2ccc(O)cc2)c2sccc2n1)c1cccnc1 | 42.24
Cc1cc2nc(N[C@@H](C)c3cccnc3)nc(C(=O)N3CC(CO)C3)c2s1 | 53.11
Cc1cc2nc(N[C@@H](C)c3cncc(F)c3)nc(C(=O)N3CC[C@@H](NC(=O)OCc4ccccc4)C3)c2s1 | 86.94
CN[C@@H]1CCN(C(=O)c2nc(N[C@@H](C)c3cncc(F)c3)nc3cc(C)sc23)C1 | 59.47
COc1ccc([C@H](C)Nc2nc(C(=O)NCc3ccccn3)c3sccc3n2)cc1 | 0.05
C[C@H](Nc1nc(C(=O)NCCN)c2sccc2n1)c1cncc(F)c1 | 10.26
C[C@H](Nc1nc(C(=O)NCCc2ccc(S(C)(=O)=O)cc2)c2sccc2n1)c1cncc(F)c1 | 3.91
Cc1cc2nc(N[C@@H](C)c3cncc(F)c3)nc(C(=O)N3CC(CNC(=O)C(C)(C)C)C3)c2s1 | 10.96
COc1ccc(CNc2nc(C(=O)NCc3cccnc3)c3sccc3n2)cn1 | 0.15

###

Listing of entries alongside the reported pIC50.
measurement-target: adenosine A3 receptor (Homo sapiens (Human))
Sequence (P0DMS8 whole entry): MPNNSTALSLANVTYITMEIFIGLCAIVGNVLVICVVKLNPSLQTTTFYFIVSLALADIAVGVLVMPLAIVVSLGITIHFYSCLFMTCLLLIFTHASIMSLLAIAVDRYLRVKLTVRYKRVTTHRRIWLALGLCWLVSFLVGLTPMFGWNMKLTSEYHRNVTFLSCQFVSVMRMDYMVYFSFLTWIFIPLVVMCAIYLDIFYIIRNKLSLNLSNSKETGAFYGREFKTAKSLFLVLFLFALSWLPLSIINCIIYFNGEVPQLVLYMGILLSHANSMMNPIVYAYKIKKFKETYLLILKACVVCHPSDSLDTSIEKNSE
procedure-summary: Adenosine receptor activity assay (Table 1), A3 cAMP
Type: biochemical
pIC50: −log10 of the molar value.

smi | pIC50
CC(C)C(=O)NC1CN(C(=O)c2nc(N[C@@H](C)c3cncc(F)c3)nc3ccsc23)C1 | < 6.30
Cc1cc2nc(N[C@@H](C)c3ccccn3)nc(C(=O)N3CC(C(=O)OC(C)(C)C)C3)c2s1 | 6.30 to 7.00
Cc1cc2nc(N[C@@H](C)c3cncc(F)c3)nc(C(=O)N3CC[C@@H](CN)C3)c2s1 | > 8.00
CC(C)C(=O)NCC1CN(C(=O)c2nc(N[C@@H](C)c3cncc(F)c3)nc3ccsc23)C1 | < 6.30
COc1ccc(CNC(=O)c2nc(N[C@@H](C)c3ccccn3)nc3cc(C)sc23)cc1 | 7.00 to 7.30
Cc1cc2nc(N[C@@H](C)c3cncc(F)c3)nc(C(=O)N3CC[C@H]3C)c2s1 | > 8.00
Cc1cc2nc(N[C@@H](C)c3cncc(F)c3)nc(C(=O)N3CC(C(N)=O)C3)c2s1 | < 6.30
Cc1cc2nc(N[C@@H](C)c3ccccn3)nc(C(=O)NCc3nccs3)c2s1 | 7.30 to 8.00
